Experiment: soluble on expression in E. coli; label from the status in PepcDB or PDB records
Property name: soluble on expression in E. coli

>>> result("SLDAAVGDVIVTLGADLSESDKQKVLDEMNVPDNATTVTVTNKEEHEYLGKYISNAQIGSRAISSSSITIAKKGSGLNVETHNISGITDEMYLNALMTAGVKDAKVYVTAPFEVSGTAALTGLIKAYEVSSDEAISEDVKQVANQELVTTSELGDKIGNENAAALIAKIKEEFAKNGVPDNKADIEKQVDDAASDLNVTLTDSQKNQLVSLFNKMKNADIDWGQVSDQLDKAKDKITKFIESDEGKNFIQKVIDFFVSIWNAIVSIFK")
"soluble"
>>> result("MQEKYNFGKVSSQHKNYSKIETMLRPKGFDKLDHYFRTELDIDLTDETIELLLNSVKAAFGKLFYGAEQRARWNGRDFIALADLNITKALEEHIKNFQKIEQDMGVDELLEYIAFIPPVEMNVGEDLKSEYRNIMGGLLLMHADVIKKATGERKPSREAMEFVAQIVDKVF")
"soluble"

* * *

Assay: soluble on expression in E. coli; label from the status in PepcDB or PDB records
Property name: soluble on expression in E. coli

>>> result("AAHQLTIVHLEARDIDRPNPQLEIAPKEGTPIEGVLYQLYQLKSTEDGDLLAHWNSLTITELKKQAQQVFEATTNQQGKATFNQLPDGIYYGLAVKAGEKNRNVSAFLVDLSEDKVIYPKIIWSTGELDLLKVGVDGDTKKPLAGVVFELYEKNGRTPIRVKNGVHSQDIDAAKHLETDSSGHIRISGLIHGDYVLKEIETQSGYQIGQAETAVTIEKSKTVTVTIENKKVPTPKVPSR")
"soluble"
>>> result("MKVDRPSRSPFPQRIPQKFWKKINDENWIDVFDCKKIKERKQEFFWYKLDPLDLAKAVAMASQMNDRGVIPYPTPTLNDALNDHAALIRALNDSSIKKLFKEVRFFCTMRKRFSTIRNNPISVKREPTNF")
"soluble"

* * *

Experiment: soluble on expression in E. coli; label from the status in PepcDB or PDB records
Property name: soluble on expression in E. coli

Some solved entries appear below for comparison.
>>> result("MAHHHHHHMAEHLLEQLRDVMVLQPSDGAVGNGEMDTSAANSHKYSVVSTFTNSPFVAVLEDTENNEDDEKELIRLLDELSHRIHCSDAADDVERPSGSFAVEKVEAPTLRASHMAPPIYGSPAPAGGSPFNYASCVSQTTKPPPSFAEAVATTPPLSEVPVELSPLAAHYVPPMPAVQQDPILLRNTHGVFMLRPITKPTPPYTPPSLTSSISQPPRYALPPAALPQSQPHFLGSSLAQVGGLADAQIPKKSSFSPYEIPHSMNNVIGGSQILGTGGAGNYTYISTSVKSKSTSHMQPPPPYPS")
"not soluble"
>>> result("MGSDKIHHHHHHMKNVIKFYEKGSIEILYGKSSHSFPLHSHECFCVGAITKGSALFTINNTKCLLEESMVFIIPPNTGISITANSQYDYITICFKNELKKQVEHILFNKFFLKIKSNDEIFNLCDIFKENNNEKQLLNSILILINSTIATNSLVMETSTNNTVLLICEYIKQTAAKNFSLDTLAESFYLSKYHLIRMFKKEMGVTPYQYYIQAKMGIIRRQIFNGKSETDLAINLNLSDSSHLCKIFKRQMGISIQAYKKNLIRK")
"not soluble"
>>> result("MSLETFLCGKESCNKGYIRHPWYGKKVGYIGDSITDPNCYGDNIKKYWDFLKEWLDITPYVYGVSGRQWNDVPRQAEQLKKEHGEEVDAIVVLMGTNDFNSSVPVGTWFAEKEEQVMAARGETKKLETRKRRVPIMTNDTYKGRINIGLSHLKKLFPDKQIVLLTPLHRSLAEFGEKNVQPDESYQNKCGEYVDAYVQAIKEAGNLWGVPVIDFNSVTGMNPMIEEQLIYFYDSGYDRLHPNTNGQERMAHTLMYQLLSLPASFEGHHHHHH")
"soluble"
>>> result("MSHLDNGFRSLTLQRFPATDDVNPLQAWEAADEYLLQQLDDTEIRGPVLILNDAFGALSCALAEHKPYSIGDSYISELATRENLRLNGIDESSVKFLDSTADYPQQPGVVLIKVPKTLALLEQQLRALRKVVTPDTRIIAGAKARDIHTSTLELFEKVLGPTTTTLAWKKARLINCTFNEPPLADAPQTVSWKLEGTDWTIHNHANVFSRTGLDIGARFFMQHLPENLEGEIVDLGCGNGVIGLTLLDKNPQAKVVFVDESPMAVASSRLNVETNMPEALDRCEFMINNALSGVEPFRFNAVLCNPPFHQQHALTDNVAWEMFHHARRCLKINGELYIVANRHLDYFHKLKKIFGNCTTIATNNKFVVLKAVKLGRRR")
"soluble"

As a next step, examine the sequence that follows.
The value of soluble on expression in E. coli measured for the sequence GMNVNFINPFLQSLLNVISTMASLELTPGKPQIKTDNLAKGDVSGLIGMVGPQTKGSLSITFEQKLVLQIMQNMLGENPGKINEEVTDLVGEITNMVTGGAKNLLGQKGYEFEMATPMVVSGQGHTISHKANGTKIIMPFTSSYGTAFIEVCFES turned out to be soluble
